# study-system: Kappa-type opioid receptor (Cavia porcellus)
# Sequence (P41144 whole entry): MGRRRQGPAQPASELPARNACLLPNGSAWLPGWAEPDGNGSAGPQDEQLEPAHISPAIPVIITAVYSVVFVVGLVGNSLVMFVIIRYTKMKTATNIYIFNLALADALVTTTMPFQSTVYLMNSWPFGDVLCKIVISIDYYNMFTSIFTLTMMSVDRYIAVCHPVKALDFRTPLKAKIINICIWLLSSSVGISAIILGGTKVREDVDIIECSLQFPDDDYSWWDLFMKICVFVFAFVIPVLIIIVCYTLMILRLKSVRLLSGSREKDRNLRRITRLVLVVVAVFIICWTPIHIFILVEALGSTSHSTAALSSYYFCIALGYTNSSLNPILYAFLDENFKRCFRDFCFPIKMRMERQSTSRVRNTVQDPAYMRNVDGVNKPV
pKi: −log10 of the molar value.
So basically: pKi at 9 or higher? That is Y. Lower than 9? That is N.

Please indicate if the recorded pKi for CC1C2Cc3ccc(O)cc3[C@@]1(C)CCN2C[C@@H]1CCCO1 (single isomer, unassigned) meets or exceeds 9.
Y

Please indicate if the recorded pKi for CN1CC[C@]23c4c5ccc(C(N)=O)c4O[C@H]2[C@@H](O)C=C[C@H]3[C@H]1C5 meets or exceeds 9.
N

Please indicate if the recorded pKi for C[C@@H]1[C@@H]2Cc3ccc(C(N)=O)cc3[C@@]1(C)CCN2C[C@H]1CCCO1 meets or exceeds 9.
N

Please indicate if the recorded pKi for C[C@@H]1[C@@H]2Cc3ccc(C(N)=O)cc3[C@@]1(C)CCN2C[C@@H]1CCCO1 meets or exceeds 9.
Y

###

# measurement-description: Displacement of [3H]Naltrindole form delta opioid receptor in guinea pig brain
# Parameters: species or system Cavia porcellus
measured-endpoint: pKi
Please treat pKi as minus the base-10 logarithm of the molar concentration.

Recorded result, CCC12CCN(CC3CC3)C(C(=O)c3ccc(O)cc31)C2C (centres undefined) , pKi: 8.47

Recorded result, CC1C2C(=O)c3ccc(C(N)=O)cc3C1(C)CCN2CC1CC1 (centres undefined) , pKi: 7.70

Recorded result, C[C@H]1[C@H]2C(=O)c3ccc(O)cc3[C@]1(C)CCN2CC1CC1 [KETAZOCINE] , pKi: 7.70

Recorded result, CCC12CCN(CC3CC3)C(C(=O)c3ccc(C(N)=O)cc31)C2C (centres undefined) , pKi: 8.01

Recorded result, CC1C2Cc3ccc(O)cc3[C@@]1(C)CCN2C[C@@H]1CCCO1 (single isomer, unassigned) , pKi: 8.44

Recorded result, C[C@@H]1[C@@H]2Cc3ccc(C(N)=O)cc3[C@@]1(C)CCN2C[C@@H]1CCCO1 , pKi: 8.70

Recorded result, CN1CC[C@]23c4c5ccc(C(N)=O)c4O[C@H]2[C@@H](O)C=C[C@H]3[C@H]1C5 , pKi: 5.72

Recorded result, C[C@@H]1[C@@H]2Cc3ccc(O)cc3[C@@]1(C)CCN2C[C@H]1CCCO1 , pKi: 7.17

Recorded result, C[C@@H]1[C@@H]2Cc3ccc(C(N)=O)cc3[C@@]1(C)CCN2C[C@H]1CCCO1 , pKi: 7.47

###

# study-system: Mu-type opioid receptor (Homo sapiens, UniProt P35372)
# Sequence (P35372 whole entry): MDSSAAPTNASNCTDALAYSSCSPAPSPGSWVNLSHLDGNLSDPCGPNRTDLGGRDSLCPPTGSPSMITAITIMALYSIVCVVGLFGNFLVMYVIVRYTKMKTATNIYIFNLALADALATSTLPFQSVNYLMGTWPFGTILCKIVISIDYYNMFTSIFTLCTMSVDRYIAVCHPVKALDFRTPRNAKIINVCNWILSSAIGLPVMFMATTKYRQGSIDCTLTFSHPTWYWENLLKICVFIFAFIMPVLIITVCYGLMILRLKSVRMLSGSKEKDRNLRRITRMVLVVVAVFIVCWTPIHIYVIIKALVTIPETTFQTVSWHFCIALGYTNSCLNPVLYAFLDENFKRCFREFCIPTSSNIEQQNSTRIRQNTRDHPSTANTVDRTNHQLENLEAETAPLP
# measurement-description: Activity at human cloned mu opioid receptor expressed in CHO cells by [35S]GTPgammaS binding assay
Answer each item with its documented EC50.

Entry CC1C2Cc3ccc(O)cc3[C@@]1(C)CCN2C[C@@H]1CCCO1 (single isomer, unassigned) under Mu-type opioid receptor (Homo sapiens, UniProt P35372) had EC50 of 2.7 nM

Entry C[C@H]1[C@H]2C(=O)c3ccc(O)cc3[C@]1(C)CCN2CC1CC1 under Mu-type opioid receptor (Homo sapiens, UniProt P35372) had EC50 of 21 nM

Entry C[C@H]1C2Cc3ccc(O)cc3[C@@]1(C)CCN2CCc1ccccc1 under Mu-type opioid receptor (Homo sapiens, UniProt P35372) had EC50 of 27 nM

Entry CC1C2Cc3ccc(C(N)=O)cc3C1(C)CCN2C (stereo unspecified) under Mu-type opioid receptor (Homo sapiens, UniProt P35372) had EC50 of 24 nM

Entry C[C@H]1[C@@H]2Cc3ccc(O)cc3[C@]1(C)CCN2C under Mu-type opioid receptor (Homo sapiens, UniProt P35372) had EC50 of 40 nM

Entry CC1C2Cc3ccc(C(N)=O)cc3C1(C)CCN2CCc1ccccc1 (stereo unspecified) under Mu-type opioid receptor (Homo sapiens, UniProt P35372) had EC50 of 5.3 nM

###

Answer each item with its documented Ratio Ki.
# Species: Cavia porcellus
# measurement-description: Ratio of Ki for delta opioid receptor to Ki for kappa opioid receptor in guinea pig brain
The reply should be a number, written without any unit.

Recorded result, CN1CC[C@]23c4c5ccc(C(N)=O)c4O[C@H]2[C@@H](O)C=C[C@H]3[C@H]1C5 , Ratio Ki: 1

Recorded result, CC1C2Cc3ccc(O)cc3[C@@]1(C)CCN2C[C@@H]1CCCO1 (single isomer, unassigned) , Ratio Ki: 40

Recorded result, C[C@@H]1[C@@H]2Cc3ccc(O)cc3[C@@]1(C)CCN2C[C@H]1CCCO1 , Ratio Ki: 45

Recorded result, CCC12CCN(CC3CC3)C(C(=O)c3ccc(C(N)=O)cc31)C2C (centres undefined) , Ratio Ki: 14

###

# study-system: Kappa-type opioid receptor (Homo sapiens, UniProt P41145)
# Sequence (P41145 whole entry): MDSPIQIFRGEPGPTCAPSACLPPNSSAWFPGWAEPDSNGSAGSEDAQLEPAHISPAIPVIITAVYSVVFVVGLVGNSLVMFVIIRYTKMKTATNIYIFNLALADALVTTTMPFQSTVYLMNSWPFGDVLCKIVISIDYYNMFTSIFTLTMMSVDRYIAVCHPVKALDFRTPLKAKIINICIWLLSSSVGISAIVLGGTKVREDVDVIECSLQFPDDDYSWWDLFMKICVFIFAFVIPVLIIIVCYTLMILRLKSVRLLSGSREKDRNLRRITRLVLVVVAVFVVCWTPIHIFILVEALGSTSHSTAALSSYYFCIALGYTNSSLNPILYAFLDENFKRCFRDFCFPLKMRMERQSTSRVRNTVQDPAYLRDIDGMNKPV
pKi: −log10 of the molar value.
Our labelling divides records by pKi into ranges: low group: < 8; middle group: ≥ 8 and < 9; high group: ≥ 9

Textbook exercise: identify the category of the compound given here, C=CCN1CC[C@]23c4c5ccc(C(N)=O)c4O[C@@H]2[C@@H](O)C=C[C@H]3[C@H]1C5 , according to its measured value.
low group

Textbook exercise: identify the category of the compound given here, NC(=O)c1ccc2c3c1O[C@H]1C4NC5C(C[C@@]6(O)[C@H]7Cc8ccc(C(N)=O)c9c8[C@@]6(CCN7CC6CC6)[C@H]5O9)C4C[C@@]4(O)[C@@H](C2)N(CC2CC2)CC[C@]314 (some centres not stated) , according to its measured value.
low group

Textbook exercise: identify the category of the compound given here, NC(=O)c1ccc2c3c1O[C@H]1[C@H](O)CC[C@@]4(O)[C@@H](C2)N(CC2CC2)CC[C@]314 , according to its measured value.
low group

Textbook exercise: identify the category of the compound given here, C=CCN1CC[C@]23c4c5ccc(O)c4O[C@H]2[C@@H](O)C=C[C@H]3[C@H]1C5 , according to its measured value.
high group

Textbook exercise: identify the category of the compound given here, NC(=O)c1ccc2c3c1O[C@H]1[C@@H](O)CC[C@@]4(O)[C@@H](C2)N(CC2CC2)CC[C@]314 , according to its measured value.
low group

Textbook exercise: identify the category of the compound given here, CC1C2Cc3ccc(C(N)=O)cc3C1(C)CCN2C (configuration not stated) , according to its measured value.
low group

Textbook exercise: identify the category of the compound given here, NC(=O)c1ccc2c(c1)[C@@]13CCCC[C@@]1(O)[C@@H](C2)N(CC1CCC1)CC3 , according to its measured value.
high group

Textbook exercise: identify the category of the compound given here, CN(C)C[C@H]1CCCC[C@]1(O)c1cccc(O)c1 (relative stereo) , according to its measured value.
low group

Textbook exercise: identify the category of the compound given here, CC(C)=CCN1CC[C@@]2(C)c3cc(C(N)=O)ccc3C[C@@H]1[C@@H]2C (relative stereo) , according to its measured value.
middle group

Textbook exercise: identify the category of the compound given here, CN(C)C[C@H]1CCCC[C@]1(O)c1cccc(C(N)=O)c1 (relative stereo) , according to its measured value.
low group

Textbook exercise: identify the category of the compound given here, C[C@H]1C2Cc3ccc(O)cc3[C@@]1(C)CCN2CCc1ccccc1 , according to its measured value.
middle group

Textbook exercise: identify the category of the compound given here, NC(=O)c1ccc2c3c1O[C@H]1C(=O)CC[C@@]4(O)[C@@H](C2)N(CC2CC2)CC[C@]314 , according to its measured value.
high group

Textbook exercise: identify the category of the compound given here, CC(C)=CCN1CC[C@@]2(C)c3cc(O)ccc3C[C@@H]1[C@@H]2C (relative stereo) , according to its measured value.
middle group

Textbook exercise: identify the category of the compound given here, C=C1CC[C@@]2(O)[C@H]3Cc4ccc(C(N)=O)c5c4[C@@]2(CCN3CC2CC2)[C@H]1O5 , according to its measured value.
middle group

###

# study-system: Delta-type opioid receptor (Homo sapiens, UniProt P41143)
# Sequence (P41143 whole entry): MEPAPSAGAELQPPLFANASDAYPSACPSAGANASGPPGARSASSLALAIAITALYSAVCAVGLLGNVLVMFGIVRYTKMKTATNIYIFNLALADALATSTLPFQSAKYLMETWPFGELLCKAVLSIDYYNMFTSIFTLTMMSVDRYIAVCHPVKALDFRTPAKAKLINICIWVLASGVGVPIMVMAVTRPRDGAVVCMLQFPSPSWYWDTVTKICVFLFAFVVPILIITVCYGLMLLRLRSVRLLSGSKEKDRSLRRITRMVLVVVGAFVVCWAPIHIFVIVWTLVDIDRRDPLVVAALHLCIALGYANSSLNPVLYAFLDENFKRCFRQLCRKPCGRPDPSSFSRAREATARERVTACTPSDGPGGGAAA
# measurement-description: Displacement of [3H]Naltrindole form human delta opioid receptor expressed in CHO cells
pKi: −log10 of the molar value.
So basically: pKi at 6 or higher? That is true (1). Lower than 6? That is false (0).

Please indicate if the recorded pKi for C=CCN1CC[C@]23c4c5ccc(C(N)=O)c4O[C@@H]2[C@@H](O)C=C[C@H]3[C@H]1C5 meets or exceeds 6.
false (0)

Please indicate if the recorded pKi for C[C@H]1C2Cc3ccc(O)cc3[C@@]1(C)CCN2CCc1ccccc1 meets or exceeds 6.
true (1)

Please indicate if the recorded pKi for NC(=O)c1ccc2c3c1O[C@H]1[C@@H](O)CC[C@@]4(O)[C@@H](C2)N(CC2CC2)CC[C@]314 meets or exceeds 6.
false (0)

Please indicate if the recorded pKi for CC(C)=CCN1CC[C@@]2(C)c3cc(C(N)=O)ccc3C[C@@H]1[C@@H]2C (relative stereo) meets or exceeds 6.
true (1)

Please indicate if the recorded pKi for CN(C)C[C@H]1CCCC[C@]1(O)c1cccc(O)c1 (relative stereo) [O-DESMETHYL TRAMADOL] meets or exceeds 6.
false (0)

Please indicate if the recorded pKi for CC1C2Cc3ccc(C(N)=O)cc3C1(C)CCN2C (stereo not drawn) meets or exceeds 6.
true (1)

Please indicate if the recorded pKi for COc1cccc(C2(O)CCCCC2CN(C)C)c1 (stereo not drawn) [TRAMADOL] meets or exceeds 6.
true (1)
